Source of measurements: PubChem BioAssay (NCI)

test system: OVCAR-3 ovarian; test: NCI-60 one-dose screen, 48 h (100 = growth as untreated, 0 = no growth, -100 = all killed); conditions: 10 µM unless noted
This is part of a sample that, as a whole, favours compounds with a hit. Of some 83,000 tested, about 20% had one in any assay. Calls of active or inactive are those of the source. Rule for the calls: active = growth percent below 10; inactive = the rest.
ENDPOINT_NAME: growth

Use these answered entries as a reference point.
COMPOUND: COc1cc2c(c(OC)c1OC)C(=O)CC(c1cccc(C(=O)Nc3cccc(Br)c3)c1)O2 (stereo unspecified)
EXPERIMENTAL_TARGET: OVCAR-3 ovarian
growth: 87.7% (inactive)
--
COMPOUND: C=C(C)C(C(=O)OCC)(C(=O)OCC)C(C)C
EXPERIMENTAL_TARGET: OVCAR-3 ovarian
growth: 116% (inactive)
--
COMPOUND: CC(=O)OC1/C=C\CC/C=C\C1 (stereo unspecified)
EXPERIMENTAL_TARGET: OVCAR-3 ovarian
growth: 115% (inactive)
--
COMPOUND: [N-]=[N+]=Nc1ncc(-c2ccc(C(F)(F)F)cc2)c(NC2CCCCCC2)n1
EXPERIMENTAL_TARGET: OVCAR-3 ovarian
growth: 7.63% [100 µM] (active)
--
COMPOUND: CCCCCCC(C(=O)OCC)(C(=O)OCC)C1CCCCCC1
EXPERIMENTAL_TARGET: OVCAR-3 ovarian
growth: 117% (inactive)
--
COMPOUND: CC(=O)C(CO)C(=O)Nc1ccccc1 (stereo unspecified)
EXPERIMENTAL_TARGET: OVCAR-3 ovarian
growth: 110% (inactive)
--
COMPOUND: c1cc[c]([Bi]([c]2ccccc2)[c]2ccccc2)cc1
EXPERIMENTAL_TARGET: OVCAR-3 ovarian
growth: 105% (inactive)
--
COMPOUND: N#CCc1ncc(-c2ccc(C(F)(F)F)cc2)c(NC2CCCCCC2)n1
EXPERIMENTAL_TARGET: OVCAR-3 ovarian
growth: -19% [100 µM] (active)
--
COMPOUND: Nc1cc(N)c2nc(NCCc3ccc(Cl)c(Cl)c3)cnc2c1
EXPERIMENTAL_TARGET: OVCAR-3 ovarian
growth: -43.4% (active)
--
COMPOUND: N#CC1=C(N2CCOCC2)NC2c3ccccc3Sc3ccccc3N2C1=N (stereo unspecified)
EXPERIMENTAL_TARGET: OVCAR-3 ovarian
growth: 103% (inactive)

API: the following record is the query input.
Kindly indicate its recorded growth. Item: Nc1nc2c(c3cnccc13)C(c1ccc(Cl)c(Cl)c1)Cc1cnccc1-2 (stereo unspecified)
-44.8% (active)
